Assign inhibition at 1 µM to each entry below.
system: phospho-myosin light chains (ppMlc, Thr18/Ser19) in A7R5 cells; experiment: A7R5 in-cell ELISA, phospho-myosin light chain; format: cell-based, rat; details: Rattus norvegicus; @ 1 μM, A7R5 cells; read-out: pMLC % inh A7R5
Respond with the figure and its unit, in that order.

Solved cases (5 shown):
>>> observed("O=C(Nc1ccc2[nH]ncc2c1)C1CCNC1 (stereo not shown) [Example 11]")
"1%"
>>> observed("O=C(Nc1ccc2[nH]ncc2c1)C1CCCCN1 (stereo not shown) [Example 13]")
"11%"
>>> observed("O=C(Nc1ccc2[nH]ncc2c1)C1CNc2ccccc2C1 (stereo not shown) [Example 3]")
"25%"
>>> observed("CNC(C(=O)Nc1ccc2[nH]ncc2c1)c1ccccc1OC (stereo not shown) [Example 35]")
"16%"
>>> observed("O=C(Nc1ccc2[nH]ncc2c1)[C@@H]1CC[C@H](c2ccccc2)N1 [Example 12]")
"1%"

Please go through the list and note inhibition at 1 µM for each molecule.
1. CC1NC(C(=O)Nc2ccc3[nH]ncc3c2)c2ccccc21 (stereo not shown) [Example 9]
2. O=C(Nc1ccc2[nH]ncc2c1)C1CCCN1 (stereo not shown) [Example 10]

Outgoing:
["4%", "1%"]

====

target: recombinant ROCK1 (amino acids 1-535) (Homo sapiens, UniProt Q13464); construct: recombinant ROCK1 (amino acids 1-535) and ROCK2; assay: Z'-lyte kinase assay, ROCK1
Sequence (Q13464 1-535): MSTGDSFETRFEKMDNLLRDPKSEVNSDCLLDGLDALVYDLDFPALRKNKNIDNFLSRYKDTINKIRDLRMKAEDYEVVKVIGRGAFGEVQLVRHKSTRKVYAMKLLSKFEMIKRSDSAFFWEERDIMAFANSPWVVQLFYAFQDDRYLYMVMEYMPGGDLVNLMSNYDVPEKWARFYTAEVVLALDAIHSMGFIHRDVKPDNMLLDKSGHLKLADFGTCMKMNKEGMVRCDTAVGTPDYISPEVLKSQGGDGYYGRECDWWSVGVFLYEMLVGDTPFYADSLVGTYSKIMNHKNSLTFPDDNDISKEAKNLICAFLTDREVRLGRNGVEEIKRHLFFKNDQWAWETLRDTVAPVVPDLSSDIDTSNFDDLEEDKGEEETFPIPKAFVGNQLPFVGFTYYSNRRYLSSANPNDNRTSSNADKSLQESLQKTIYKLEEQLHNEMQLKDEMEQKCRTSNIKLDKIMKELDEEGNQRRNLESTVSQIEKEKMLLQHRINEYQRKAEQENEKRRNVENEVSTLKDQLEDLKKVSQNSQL
Assay Readout: pIC50
Answers are plain numbers, as −log10 of the molar value.

>>> observed("CNC(C(=O)Nc1ccc2[nH]ncc2c1)c1cccc(Cl)c1 (stereo not drawn)")
8.06

I'm hoping you can list pIC50 for every molecule here, please.
1. Cc1ccc(C(N)C(=O)Nc2ccc3[nH]ncc3c2)cc1 (stereo not drawn) [Comp5, reference compound]
2. NC(C(=O)Nc1ccc2[nH]ncc2c1)c1cccc(F)c1 (stereo not drawn) [Comp6, reference compound]
3. Cc1ccc(C(NC2CC2)C(=O)Nc2ccc3[nH]ncc3c2)cc1 (stereo not drawn)
4. CNC(C(=O)Nc1ccc2[nH]ncc2c1)c1ccc(-c2ccccc2OC)cc1 (stereo not drawn)
5. COc1ccc(C(NC2CC2)C(=O)Nc2ccc3[nH]ncc3c2)cc1 (stereo not drawn)
6. Cc1ccc(C(NC(C)(C)C)C(=O)Nc2ccc3[nH]ncc3c2)cc1 (stereo not drawn)
7. CC(C)(C)NC(C(=O)Nc1ccc2[nH]ncc2c1)c1ccccc1 (stereo not drawn)
8. CNC(C(=O)Nc1ccc2[nH]ncc2c1)c1cccnc1 (stereo not drawn)

Outgoing:
[5.88, 7.38, 6.64, 6.51, 7.10, 7.21, 7.01, 6.60]

====

assay: Mouse pharmacokinetic study, plasma and brain distribution 2 hours after dosing; format: in vivo; conditions: brain/plasma, IV 10 mg base/kg, 2 hours post-dose, read-out: Brain/Plasma Ratio
Assay Readout: Kp at 2 h

Incoming: Quick check: Kp at 2 h of CNC(C(=O)Nc1ccc2[nH]ncc2c1)c1ccccc1 (stereo not shown) ?
Outgoing: 3.31

====

experiment: Brain and plasma concentrations in mouse by HPLC/MS/MS after 2.5 mg/kg IV; assay type: in vivo; conditions: brain/plasma, read-out: Mean Brain/Plasma Ratio at 0.25 hr
Exercise: state measured Kp at 0.25 h for each of the compounds provided.
Give bare numbers.

>>> observed("CNC(C(=O)Nc1ccc2[nH]ncc2c1)c1cccc(OC)c1 (centres unmarked)")
1.33

Incoming: Dear colleague, I am looking for the recorded Kp at 0.25 h of the following compound: CNC(C(=O)Nc1ccc2[nH]ncc2c1)c1ccc(Oc2cccc(OC)c2)cc1 (centres unmarked)
Outgoing: 2.17

====

Hi there, I'd appreciate the recorded pIC50 for every entry that follows.
biological target: recombinant ROCK1 (amino acids 1-535) (Homo sapiens); construct: recombinant ROCK1 (amino acids 1-535) and ROCK2; test: Z'-lyte kinase assay, ROCK1
Answers are plain numbers, as −log10 of the molar value.

Record pIC50 per entry; entries follow.
1. Cc1ccc(C(NC(C)C)C(=O)Nc2ccc3[nH]ncc3c2)cc1 (stereo not drawn) [Example 29]
2. CNC(C(=O)Nc1ccc2[nH]ncc2c1)c1ccc(C)cc1 (stereo not drawn) [Example 28]
3. CCNC(C(=O)Nc1ccc2[nH]ncc2c1)c1ccc(F)cc1 (stereo not drawn) [Example 23]

Outgoing:
[7.18, 7.75, 6.31]

Provide the reported pIC50 of each entry below, same order.
1. CNC(C(=O)Nc1ccc2[nH]ncc2c1)c1ccc(OC)cc1 (stereo not drawn) [Example 24]
2. CNC(C(=O)Nc1ccc2[nH]ncc2c1)c1ccc(Oc2ccc(OC)cc2)cc1 (stereo not drawn) [Example 14]
3. O=C(Nc1ccc2[nH]ncc2c1)C1NCCc2ccccc21 (stereo not drawn) [Example 5]
4. NC(C(=O)Nc1ccc2[nH]ncc2c1)c1ccccc1F (stereo not drawn) [Comp7, reference compound]

Outgoing:
8.41
7.49
7.42
6.78

====

assay: Brain and plasma concentrations in mouse by HPLC/MS/MS after 2.5 mg/kg IV; assay type: in vivo; conditions: brain, iv, 2.5 mg/kg, read-out: Mean Conc. at 2 hr, Brain
Assay Readout: concentration at 2 h (ng/g)
Answers are plain numbers, in ng/g.

Incoming: What concentration at 2 h value was documented for this compound, CNC(C(=O)Nc1ccc2[nH]ncc2c1)c1ccc(Oc2cccc(OC)c2)cc1 (stereo not shown) [Example 15] ?
Outgoing: 288

====

Assay: Mouse pharmacokinetic study, plasma and brain distribution 2 hours after dosing
Assay type: in vivo
Details: plasma, PO 100 mg base/kg, 2 hours post-dose, read-out: Plasma Concentration
Protocol: In a mouse pharmacokinetic study, 2 hours after dosing, animal tissues were harvested to determine the compound distribution.
Assay Readout: concentration at 2 h
Express the reported value numerically, then name its unit.

Incoming: For CNC(C(=O)Nc1ccc2[nH]ncc2c1)c1ccccc1 (stereo not shown) , what is its reported concentration at 2 h?
Outgoing: 9290 ng/mL

====

test: Mouse pharmacokinetic study, plasma and brain distribution 2 hours after dosing; assay type: in vivo; conditions: brain, PO 30 mg base/kg, 2 hours post-dose, read-out: Brain Concentration
Assay Readout: concentration at 2 h (ng/g)
One number for each entry, in ng/g.

Incoming: Tell me the measured concentration at 2 h of CNC(C(=O)Nc1ccc2[nH]ncc2c1)c1ccccc1 (stereo not shown) [Example 2] , please.
Outgoing: 2860

====

Assign Kp at 2 h to each entry below.
assay: Brain and plasma concentrations in mouse by HPLC/MS/MS after 2.5 mg/kg IV; type: in vivo; details: brain/plasma, read-out: Mean Brain/Plasma Ratio at 2 hr
Answers are plain numbers.

>>> observed("CNC(C(=O)Nc1ccc2[nH]ncc2c1)c1ccc(Oc2cccc(OC)c2)cc1 (centres unmarked)")
6.99

Now turn to the next compound.
Incoming: Form field: reported Kp at 2 h of CNC(C(=O)Nc1ccc2[nH]ncc2c1)c1cccc(OC)c1 (centres unmarked)
Outgoing: 8.41

====

molecular target: recombinant ROCK1 (amino acids 1-535) (Homo sapiens, UniProt Q13464); construct: recombinant ROCK1 (amino acids 1-535) and ROCK2; purchased ThermoFisher Scientific; test: Z'-lyte kinase assay, ROCK1; type: biochemical; details: 3 μM; read-out: ROCK1 % inh
Assay Readout: inhibition at 3 µM
Param answer (str): number followed by unit.

Please review the entries below; each comes with its answer.
>>> observed("CCNC(C(=O)Nc1ccc2[nH]ncc2c1)c1ccc(OC)cc1 (stereo not drawn)")
"99%"
>>> observed("Cc1ccc(C(N)C(=O)Nc2ccc3[nH]ncc3c2)cc1 (stereo not drawn) [Comp5, reference compound]")
"99%"
>>> observed("CCNC(C(=O)Nc1ccc2[nH]ncc2c1)c1ccccc1 (stereo not drawn)")
"91.5%"
>>> observed("NC(C(=O)Nc1ccc2[nH]ncc2c1)c1ccc(Cl)cc1 (stereo not drawn) [Comp2, reference compound]")
"92.2%"
>>> observed("CCNC(C(=O)Nc1ccc2[nH]ncc2c1)c1ccc(Cl)cc1 (stereo not drawn)")
"93.3%"

// each listed compound needs a value for inhibition at 3 µM
1. Cc1ccc(C(NC(C)(C)C)C(=O)Nc2ccc3[nH]ncc3c2)cc1 (stereo not drawn)
2. CCNC(C(=O)Nc1ccc2[nH]ncc2c1)c1ccc(C)cc1 (stereo not drawn)
3. CNC(C(=O)Nc1ccc2[nH]ncc2c1)c1ccc(F)cc1 (stereo not drawn)
4. CNC(C(=O)Nc1ccc2[nH]ncc2c1)c1ccccc1 (stereo not drawn)

Outgoing:
["100%", "99%", "21.4%", "98.8%"]

====

Target: recombinant ROCK1 (amino acids 1-535) (Homo sapiens)
Construct: recombinant ROCK1 (amino acids 1-535) and ROCK2; purchased ThermoFisher Scientific
Experiment: Z'-lyte kinase assay, ROCK1
Assay type: biochemical
Conditions: 3 μM; read-out: ROCK1 % inh
Protocol: Determination of compounds ROCK inhibitory activity in vitro (Z'lyte assay): recombinant ROCK1 (amino acids 1-535) and ROCK2 (amino acids 1-552) proteins were purchased from ThermoFisher Scientific. Compounds activities were measured by Z′-lyte kinase kit (ThermoFisher Scientific) and IC50s were calculated. Table 2, below, provides in vitro and cellular inhibition of ROCKs by compounds of the invention. Compounds activities were measured by Z′-lyte kinase kit (ThermoFisher Scientific). […]
Quick rule for you: inhibition at 3 µM at 90% or higher means 1 (yes), lower means 0 (no).

>>> label_value("NC(C(=O)Nc1ccc2[nH]ncc2c1)c1ccccc1F (stereo not drawn) [Comp7, reference compound]")
"1 (yes)"

Incoming: Decide: inhibition at 3 µM of O=C(Nc1ccc2[nH]ncc2c1)C1CNc2ccccc2C1 (stereo not drawn) >= 90%?
Outgoing: 0 (no)

Incoming: Is inhibition at 3 µM at least 90%? Consider Cc1ccc(C(NC(C)C)C(=O)Nc2ccc3[nH]ncc3c2)cc1 (stereo not drawn)
Outgoing: 1 (yes)

Incoming: API: above_or_equal(metric=inhibition at 3 µM, cutoff=90%) for item CCNC(C(=O)Nc1ccc2[nH]ncc2c1)c1ccc(F)cc1 (stereo not drawn)
Outgoing: 1 (yes)

Incoming: // inclusive: inhibition at 3 µM at least 90%? input: COc1ccc(C(N)C(=O)Nc2ccc3[nH]ncc3c2)cc1 (stereo not drawn) [Comp4, reference compound]
Outgoing: 1 (yes)

Incoming: Form field: inhibition at 3 µM at least 90%? Entry: CNC(C(=O)Nc1ccc2[nH]ncc2c1)c1ccc(Cl)cc1 (stereo not drawn)
Outgoing: 1 (yes)
